# procedure.details: Solubility in buffers with different pHs and in water (Example 19)
# Format: physicochemical
# conditions: purified water, 37 °C, water, thermodynamic from solid, 30 minutes; calculated based on the free form
readout.type: solubility at 30 min (µg/mL)
Please reply with the bare figure in µg/mL and do not write the unit itself.

Query: Using the record for "CNC(=O)c1cc(CCc2cnc(Nc3ccc(N4C[C@@H](C)N[C@@H](C)C4)cc3)nc2)c(Cl)c(OC)c1" , report its solubility at 30 min.
Result: 2.3

====

# procedure.details: Solubility in buffers with different pHs and in water (Example 19)
# Type: physicochemical
# conditions: pH 6.8 buffer (USP), 37 °C, pH 6.8, aqueous buffer, thermodynamic from solid, pH 6.8 buffer, 30 minutes; calculated based on the free form
readout.type: solubility at 30 min (µg/mL)
# unit: µg/mL | format: bare number

Query: Item CNC(=O)c1cc(CCc2cnc(Nc3ccc(N4C[C@@H](C)N[C@@H](C)C4)cc3)nc2)c(Cl)c(OC)c1 [Compound 78] has what recorded solubility at 30 min?
Result: 67.5

====

# procedure.details: Solubility in buffers with different pHs and in water (Example 19)
# Assay type: physicochemical
# conditions: pH 2.1 buffer (USP), 37 °C, pH 2.1, aqueous buffer, thermodynamic from solid, pH 2.1 buffer, 30 minutes; calculated based on the free form
readout.type: solubility at 30 min (µg/mL)
Please respond with the number in µg/mL and leave the unit unwritten.

Query: Name the recorded solubility at 30 min for "CNC(=O)c1cc(CCc2cnc(Nc3ccc(N4C[C@@H](C)N[C@@H](C)C4)cc3)nc2)c(Cl)c(OC)c1" .
Result: 174

====

# procedure.details: Solubility in buffers with different pHs and in water (Example 19)
# Format: physicochemical
# conditions: pH 1.2 buffer (USP), 37 °C, pH 1.2, simulated gastric fluid, thermodynamic from solid, pH 1.2 buffer, 30 minutes; calculated based on the free form
readout.type: solubility at 30 min (µg/mL)
Your answer is read as µg/mL, so omit the unit and give the number.

Query: # solubility at 30 min lookup, item "CNC(=O)c1cc(CCc2cnc(Nc3ccc(N4C[C@@H](C)N[C@@H](C)C4)cc3)nc2)c(Cl)c(OC)c1"
Result: 721

Measured values drawn from patent US12559472B2 for this set.
